- Tested on: JJN-3 (NIK translocated) multiple myeloma cells
- ASSAY_OVERVIEW: Antiproliferative activity on JJN-3 multiple myeloma cells (CellTiter-Glo)
- Type: cell-based, human
- CONDITIONS: Homo sapiens, JJN-3, 96 h, JJN-3 (NIK translocated) cells, 96 hr treatment, averaged values, read-out: JJN-3 Proliferation inhibition (IC50 (nM))
The label is 1 (yes) for IC50 below 200 nM and 0 (no) for IC50 equal to or exceeding 200 nM.

Does Cc1nc(Nc2nccc(-c3cc(C#N)c4c(c3)[C@@](C)(CO)CN4)n2)cc(N2CCOCC2)n1 have IC50 strictly under 200 nM? 0 (no)

Does C[C@]1(CO)CNc2c(C#N)cc(-c3ccnc(Nc4cc(Cl)cnc4OC4CCOCC4)n3)cc21 have IC50 strictly under 200 nM? 0 (no)

Does COCCN(C)c1nc(OC)c(Nc2nccc(-c3cc(C#N)c4c(c3)[C@@](C)(CO)CN4)n2)cc1Cl have IC50 strictly under 200 nM? 1 (yes)

Does CN(C)C(=O)/C=C/c1ccc(Nc2nccc(-c3cc(C#N)c4c(c3)[C@@](C)(CO)CN4)n2)c(CCC2CC2)n1 have IC50 strictly under 200 nM? 1 (yes)

Does Cc1cc(Nc2nccc(-c3cc(C#N)c4c(c3)[C@@](C)(CO)CN4)n2)c(=O)n(C)c1 have IC50 strictly under 200 nM? 1 (yes)

Does CC1(CO)CNc2c(C#N)cc(-c3ccnc(Nc4cc(Cl)cnc4Cl)n3)cc21 (stereo not drawn) have IC50 strictly under 200 nM? 1 (yes)

Does Cc1cc(Nc2nccc(-c3cc(C#N)c4c(c3)[C@@](C)(CO)CN4)n2)c(=O)n(CC(C)N2CCOCC2)c1 (single isomer, unassigned) [Compound 22i] have IC50 strictly under 200 nM? 1 (yes)

Does COc1ncccc1Nc1nccc(-c2cc(C#N)c3c(c2)C(C)(C)CN3)n1 have IC50 strictly under 200 nM? 0 (no)

Does COCCOc1ncccc1Nc1nccc(-c2cc(C#N)c3c(c2)[C@@](C)(CO)CN3)n1 have IC50 strictly under 200 nM? 0 (no)

---

The label is yes (1) for melting point below 200 °C and no (0) for melting point equal to or exceeding 200 °C.

Does C[C@]1(CO)CNc2c(C#N)cc(-c3ccnc(Nc4cccnc4OC4CCOCC4)n3)cc21 have melting point strictly under 200 °C? no (0)

Does C[C@]1(CO)CNc2c(C#N)cc(-c3ccnc(Nc4cc(F)cn(CCN5CCOCC5)c4=O)n3)cc21 have melting point strictly under 200 °C? no (0)

Does CC1(CO)CNc2c(C#N)cc(-c3nc(Nc4cc(Cl)cnc4OC4CCOCC4)ncc3F)cc21 (centres unmarked) have melting point strictly under 200 °C? no (0)

Does CN(C)C(=O)Cn1cc(Cl)cc(Nc2nccc(-c3cc(C#N)c4c(c3)[C@@](C)(CO)CN4)n2)c1=O [Compound 11i] have melting point strictly under 200 °C? no (0)

Does COc1ncccc1Nc1nccc(-c2cc(C#N)c3c(c2)C(C)(CNC2CC2)CN3)n1 (centres unmarked) have melting point strictly under 200 °C? yes (1)

Does C[C@]1(CO)CNc2c(C#N)cc(-c3ccnc(Nc4cccnc4O[C@H]4CCCOC4)n3)cc21 have melting point strictly under 200 °C? yes (1)

Does COCCOc1ncccc1Nc1ncc(F)c(-c2cc(C#N)c3c(c2)[C@@](C)(CO)CN3)n1 have melting point strictly under 200 °C? no (0)

Does C[C@]1(CO)CNc2c(C#N)cc(-c3ccnc(Nc4cc(C#N)cnc4CCC4CC4)n3)cc21 have melting point strictly under 200 °C? yes (1)

Does CC1(C)CNc2c(C#N)cc(-c3ccnc(Nc4cc(F)cn(CCN5CC(F)C5)c4=O)n3)cc21 [Compound 28i] have melting point strictly under 200 °C? no (0)
